Cited source: patent US20120046308A1

Target: angiotensin II type 1 receptor (Oryctolagus cuniculus)
Construct: By using a specimen of isolated rabbit blood vessels
Sequence (P34976 whole entry): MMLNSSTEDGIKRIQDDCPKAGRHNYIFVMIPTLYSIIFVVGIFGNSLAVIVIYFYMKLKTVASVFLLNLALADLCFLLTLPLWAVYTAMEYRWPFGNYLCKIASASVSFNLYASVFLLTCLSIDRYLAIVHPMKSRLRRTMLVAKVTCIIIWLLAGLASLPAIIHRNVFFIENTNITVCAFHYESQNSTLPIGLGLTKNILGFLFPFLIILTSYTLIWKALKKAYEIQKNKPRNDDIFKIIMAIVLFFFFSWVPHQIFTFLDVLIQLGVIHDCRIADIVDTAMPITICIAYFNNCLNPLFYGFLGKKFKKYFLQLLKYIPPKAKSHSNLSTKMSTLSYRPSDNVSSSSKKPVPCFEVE
Assay: Angiotensin II antagonistic activity in isolated rabbit blood vessels (thoracic aorta ring contraction)
Conditions: angiotensin II (10 nM)-induced contraction
Experimental: By using a specimen of isolated rabbit blood vessels, antagonistic activity of the compounds of the invention against angiotensin II type 1 receptor was estimated from a dose-response curve of angiotensin II-induced blood vessel contraction. During the measurement, the inside temperature of the magnus bath was maintained at 37° C. and the bath was continuously ventilated with a sufficient amount of mixed gas (95% O2 and 5% CO2). […]
Reported values of pIC50 for individual entries
Scale: negative log10 of molar concentration, which is what pIC50 denotes.

Please report the measured pIC50 for CCCCc1nc(C)n(Cc2ccccc2)c(=O)c1Cc1cc(CCC)c(OC(C(=O)O)c2ccccc2)c(CCC)c1 (stereo not drawn)
6.14

Please report the measured pIC50 for CCCCc1nc(C)n(-c2ncc(OCC[S+](C)[O-])cn2)c(=O)c1Cc1cc(CCC)c(OC(C(=O)O)c2ccccc2)c(CCC)c1 (stereo not drawn)
7.12

Please report the measured pIC50 for CCCCc1nc(C)n(-c2ncc(OC)cn2)c(=O)c1Cc1cc(CCC)c(OC(C(=O)O)c2ccccc2)c(CCC)c1 (single isomer, unassigned; (-)) [Example 16]
7.24

***
Please report the measured pIC50 for CCCCc1nc(C)n(-c2ncc(OCCS(C)(=O)=O)cn2)c(=O)c1Cc1cc(CCC)c(OC(C(=O)O)c2ccccc2)c(CCC)c1 (stereo not drawn)
6.45

Please report the measured pIC50 for CCCc1nc2c(C)cc(-c3nc4ccccc4n3C)cc2n1Cc1ccc(-c2ccccc2C(=O)O)cc1 [telmisartan, reference compound]
7.60

Please report the measured pIC50 for CCCCc1nc(C)n(CCOC)c(=O)c1Cc1cc(CCC)c(OC(C(=O)O)c2ccccc2)c(CCC)c1 (stereo not drawn)
6.60

Please report the measured pIC50 for CCCCc1nc(C)n(-c2ncc(O)cn2)c(=O)c1Cc1cc(CCC)c(OC(C(=O)O)c2ccccc2)c(CCC)c1 (stereo not drawn)
6.33

Please report the measured pIC50 for CCCCc1nc(C)n(-c2ncc(OCC)cn2)c(=O)c1Cc1cc(CCC)c(OC(C(=O)O)c2ccccc2)c(CCC)c1 (stereo not drawn)
6.94

Please report the measured pIC50 for CCCCc1nc(C)n(-c2ncc(OCCCC(N)=O)cn2)c(=O)c1Cc1cc(CCC)c(OC(C(=O)O)c2ccccc2)c(CCC)c1 (stereo not drawn)
7.17

Please report the measured pIC50 for CCCCc1nc(C)n(CC2CCCCC2)c(=O)c1Cc1cc(CCC)c(OC(C(=O)O)c2ccccc2)c(CCC)c1 (stereo not drawn)
6.08

Please report the measured pIC50 for CCCCc1nc(C)n(-c2ccccn2)c(=O)c1Cc1cc(CCC)c(OC(C(=O)O)c2ccccc2)c(CCC)c1 (stereo not drawn)
6.28

Please report the measured pIC50 for CCCCc1nc(C)n(-c2ncc(OC)cn2)c(=O)c1Cc1cc(CCC)c(OC(C(=O)O)c2ccccc2)c(CCC)c1 (stereo not drawn) [Example 15]
7.04
